Tested on: Enterococcus sp.
assay-details: in vitro antibacterial evaluation, MIC by broth dilution
Type: cell-based
stated-conditions: broth dilution, 18 hours at 35° C.
result-type: MIC Enterococcus faecalis (GC 2242) (µg/mL)

>>> endpoint_value("CC(c1ccccc1)C1NC(=O)CNC(=O)C(CO)NC(=O)C(C(O)C2CNC(=N)N2C2OC(CO)C(O)C(O)C2O)NC(=O)C(C(O)C2CNC(=N)N2)NC(=O)C(Cc2ccc(OC3OC(CO)C(OC4OC5COC6(CC7CCC6(C)C7(C)C)OC5C(O)C4O)C(O)C3O)cc2)NC1=O (centres unmarked)")
2
>>> endpoint_value("CC(c1ccccc1)C1NC(=O)CNC(=O)C(CO)NC(=O)C(C(O)C2CN(Cc3ccccc3)C(=NCc3ccccc3)N2C2OC(CO)C(O)C(O)C2O)NC(=O)C(C(O)C2CN(Cc3ccccc3)C(=NCc3ccccc3)N2Cc2ccccc2)NC(=O)C(Cc2ccc(OC3OC(CO)C(OC4OC5COC6(OC5C(O)C4O)C4CC5CC(C4)CC6C5)C(O)C3O)cc2)NC1=O (centres unmarked)")
16
>>> endpoint_value("CC(c1ccccc1)C1NC(=O)CNC(=O)C(CO)NC(=O)C(C(O)C2CNC(=N)N2C2OC(CO)C(O)C(O)C2O)NC(=O)C(C(O)C2CNC(=N)N2)NC(=O)C(Cc2ccc(OC3OC(CO)C(OC4OC(CO)C(O)C5OC6(CCCCCCCCCCCC6)OC45)C(O)C3O)cc2)NC1=O (centres unmarked) [Example 210a]")
8
>>> endpoint_value("COc1ccc(COCC2OC(OC3C(CO)OC(Oc4ccc(CC5NC(=O)C(C(C)c6ccccc6)NC(=O)CNC(=O)C(CO)NC(=O)C(C(O)C6CNC(=N)N6C6OC(CO)C(O)C(O)C6O)NC(=O)C(C(O)C6CNC(=N)N6)NC5=O)cc4)C(O)C3O)C(O)C(O)C2O)cc1OCc1ccccc1 (centres unmarked)")
4
>>> endpoint_value("CC(c1ccccc1)C1NC(=O)CNC(=O)C(CO)NC(=O)C(C(O)C2CNC(=N)N2C2OC(CO)C(O)C(O)C2O)NC(=O)C(C(O)C2CNC(=N)N2)NC(=O)C(Cc2ccc(OC3OC(CO)C(OC4OC5COC6(CCCCCCCCCCC6)OC5C(O)C4O)C(O)C3O)cc2)NC1=O (centres unmarked)")
4
>>> endpoint_value("CC(c1ccccc1)C1NC(=O)CNC(=O)C(CO)NC(=O)C(C(O)C2CNC(=N)N2C2OC(CO)C(O)C(O)C2O)NC(=O)C(C(O)C2CNC(=N)N2)NC(=O)C(Cc2ccc(OC3OC(CO)C(OC4OC(COC(=O)C(c5ccccc5)c5ccccc5)C(O)C(O)C4O)C(O)C3O)cc2)NC1=O (centres unmarked) [Example 96c]")
1
>>> endpoint_value("COc1ccc2cc(C3OCC4OC(OC5C(CO)OC(Oc6ccc(CC7NC(=O)C(C(C)c8ccccc8)NC(=O)CNC(=O)C(CO)NC(=O)C(CC8CNC(=N)N8C8OC(CO)C(O)C(O)C8O)NC(=O)C(CC8CNC(=N)N8)NC7=O)cc6)C(O)C5O)C(O)C(O)C4O3)ccc2c1 (centres unmarked)")
32
>>> endpoint_value("N=C1NCC(C(O)C2NC(=O)C(Cc3ccc(OC4OC(CO)C(OC5OC6COC7(OC6C(O)C5O)C5CC6CC(C5)CC7C6)C(O)C4O)cc3)NC(=O)C(Cc3ccccc3)NC(=O)CNC(=O)C(CO)NC(=O)C(C(O)C3CNC(=N)N3C3OC(CO)C(O)C(O)C3O)NC2=O)N1 (centres unmarked)")
1
>>> endpoint_value("CC(c1ccccc1)C1NC(=O)CNC(=O)C(CO)NC(=O)C(C(O)C2CNC(=N)N2C2OC(CO)C(O)C(O)C2O)NC(=O)C(C(O)C2CNC(=N)N2)NC(=O)C(Cc2ccc(OC3OC(CO)C(OC4OC5COC6(CCCCC6C)OC5C(O)C4O)C(O)C3O)cc2)NC1=O (centres unmarked)")
16
